tested on: EKVX NSCLC; assay: NCI tumour cell line growth inhibition, 48 h
measure-name: TGI

Consider the worked cases shown below.
NCCCCCCn1c(-c2ccc(Br)cc2)csc1=Nc1ccccc1	26.7 µM
COc1ccc2c(c1)C1C(CO2)C(c2ccccc2)=NN1c1ccccc1 (stereo not given)	> 100 µM
COC(=O)C1C(O)C(C)C(=O)C(C)/C=C\C=C(C)C(=O)Nc2c(C)c(OC(C)=O)c3c(c2O)C(=O)C(C)=C2OCOC(=C23)C(C)=CC(C)(O)C(O)C(C)C1O (stereo not given)	> 100 µM
CCCCc1c2c(nc3c1CCCC3=O)C(=O)CCC2	> 100 µM
COc1ncc(-c2ccc3nccc(C#CCCCCC(=O)O)c3c2)cc1NS(=O)(=O)c1ccc(F)cc1F	45.1 µM
O=[N+]([O-])c1ccc(C2N3CCCCC3[C@H]3CCCCN23)cc1 (stereo not given in full)	> 100 µM
O=[N+]([O-])c1ccc(C(Br)c2ccc([N+](=O)[O-])cc2)cc1	28.7 µM
CCOC(=O)/C(=C\c1ccccc1)C(=O)CCN1CCOCC1	34.7 µM
COc1ccc2c(c1)oc1c(C)c3c(c(C)c12)C(=O)N(N)C3=O	> 100 µM

Would you kindly share the measured TGI for CCOC(=O)NC(Nc1ccc(OC(F)(F)F)cc1)(C(F)(F)F)C(F)(F)F ?
> 100 µM

---

system: SK-MEL-5 melanoma; assay: NCI tumour cell line growth inhibition, 48 h
Quick reference: TGI of the listed items.

Cc1nn(C(=O)c2ccccc2O)c2c1C(c1ccccc1O)SC(N)=N2 (stereo unspecified)	> 10 µM

Record request: TGI value, item Cn1c(C(O)C2(c3cccnc3)SCCCS2)cc2ccccc21 (stereo unspecified)
> 100 µM

Quick one: TGI of CCOC(=O)c1csc(CCCCCCc2nc(C(=O)OCC)cs2)n1 ?
> 100 µM

Quick one: TGI of C=C1CC2(OC1=O)C(=O)N(C)c1ccc(I)cc12 (stereo unspecified) ?
6.37 µM

For COc1ccc(Nc2nn3c(=O)c4c(C)c(C)sc4nc3s2)cc1 , what is its reported TGI?
> 100 µM

Recorded TGI of CCOC(=O)C(C(CC(=O)OC)NC(=O)OCc1ccccc1)C1(C)OCCO1 (stereo unspecified) , please.
> 100 µM

Fill in the blank: the reported TGI of Cn1c(=O)n(CCCO)c(=O)c2c1nc(Oc1cccc(OC(F)(F)F)c1)n2Cc1ccc(Cl)cc1 is ____.
30.9 µM

Name the recorded TGI for COc1ccc2c(c1)[C@@H]1c3cc(OC)c(OC)cc3CCN1CCC2 .
> 100 µM

Given CCC1=C(C)C(=O)N/C1=C\c1[nH]c(C)c([C@H](C)CCN)c1C , state its recorded TGI.
31.4 µM

Endpoint output: TGI of Cc1c([C@H](C(Cl)Cl)[C@H](O)[C@H]2C[C@H](C)C(=O)O2)ccc2c1C(=O)[C@H]1[C@H]2C[C@@H](Br)[C@@]23O[C@@H](CO[C@H]2O)CC13C (stereo partly specified) . Value?
3.97 µM

Dear colleague, I am looking for the recorded TGI of the following compound: CCN(CC)CCn1ncc2c3c(=O)c4cccnc4n(CCN(CC)CC)c3ccc21
> 10 µM

For the compound shown here, C=CCSc1nc2c(N)ncnc2n1C1OC(CO)C(O)C1O (stereo unspecified) , give the reported TGI.
> 100 µM

I am curious: what TGI value has been reported for Oc1ccc(Nc2nc3ccccc3c3occc23)cc1 ?
21.9 µM
